Measured z-scoreHeLa mean by item
Tested on: HeLa cells
Assay: Compound screen by flow cytometry: HeLa cell count as surrogate readout of cell viability (z-scoreHeLa); note: test concentration or dose not given here
Type: cell-based, human
Settings: PKIS compound screen, HeLa cell count, mean of 3 replicates

compound: Cc1cccc(-c2nc(Nc3cccc(C(N)=O)c3)c3ccccc3n2)n1 [GW876019X]
z-scoreHeLa mean: -1.76
//
compound: Cc1ccc(NC(=O)c2ccnc(N3CCN(C)CC3)c2)cc1-c1ccc(C(=O)NCC2CC2)cc1 [GW775604X]
z-scoreHeLa mean: -0.99
//
compound: Fc1cc(Cl)ccc1Nc1ccnc2cc(-c3ccc(CN4CCOCC4)o3)ccc12 [GW560109X]
z-scoreHeLa mean: 0.75
//
compound: Cn1cncc1-c1cc2c(Nc3ccc(OCc4ccccc4)cc3)ncnc2cn1 [GW281179X]
z-scoreHeLa mean: -1.41
//
compound: CCS(=O)(=O)c1ccc(OC)c(Nc2nccc(N(C)c3ccc4c(C)n[nH]c4c3)n2)c1 [GW654652C]
z-scoreHeLa mean: -0.80
//
compound: CC(C)S(=O)(=O)N1CCN(Cc2ccc3c(c2)nc(NC(=O)c2ccsc2)n3C[C@H](O)c2ccccc2)CC1 [GW635815X]
z-scoreHeLa mean: 0.52
//
compound: O=C(NC1CCN(c2ccnc(Nc3ccc(F)cc3)n2)C1)c1cc2ccccc2s1 (stereo not drawn) [GSK1379716A]
z-scoreHeLa mean: -0.35
//
compound: CC(C)(C)c1ccc2nccc(Nc3cccc(O)c3)c2c1 [GW856795X]
z-scoreHeLa mean: 0.00181
//
compound: Cc1cc(NCC(c2ccccc2)c2ccccc2)nc(NCc2ccc(C(F)(F)F)cc2)n1 [GW497681X]
z-scoreHeLa mean: -2.65
//
compound: [O-][S+]1CCN(Cc2ccc(-c3ccc4ncnc(Nc5ccc(OCc6cccc(F)c6)c(Cl)c5)c4c3)o2)CC1 [GW576609A]
z-scoreHeLa mean: 0.49
//
compound: Cc1ccc(NC(=O)c2ccc(Cl)cc2)cc1-c1ccc(C(=O)Nc2ccncc2)cc1 [GSK1398467A]
z-scoreHeLa mean: -2.91
//
compound: COc1cc2c(Nc3cccc(NC(=O)c4ccccc4)c3)ncnc2cc1OCCCN1CCOCC1 [GSK223810A]
z-scoreHeLa mean: 0.00813
//
compound: COC(=O)Nc1nc2ccc(Oc3ccc(NC(=O)Nc4cc(C(F)(F)F)ccc4F)cc3)cc2n1C [GW692089A]
z-scoreHeLa mean: 0.00395
//
compound: Cc1ccc(O)cc1Nc1ccnc2cc(-c3ccc(CN4CCCCC4)o3)ccc12 [GW557777X]
z-scoreHeLa mean: 1.17
//
compound: O=C1Nc2ccc(-c3cccnc3)cc2C1=Cc1cc(Br)c(O)c(Br)c1 [GW429374A]
z-scoreHeLa mean: 1.01
//
compound: COc1ccc(Nc2nccc(N3CCC(NC(=O)Nc4cccc(OC)c4)C3)n2)cc1 (stereo not drawn) [GSK1379742A]
z-scoreHeLa mean: 0.12
//
compound: COc1cccc(NC(=O)NC2CCN(c3ccnc(Nc4cc(OC)c(OC)c(OC)c4)n3)C2)c1 (stereo not drawn) [GSK1379763A]
z-scoreHeLa mean: 0.05
//
compound: NS(=O)(=O)c1cccc(-c2cc3ccncc3cc2OCc2ccccc2)c1 [GSK980961A]
z-scoreHeLa mean: -0.61
//
compound: CS(=O)(=O)CCNCc1cc(-c2cc3c(Nc4ccc(OCc5cccc(F)c5)c(Cl)c4)ncnc3s2)cs1 [GSK300014A]
z-scoreHeLa mean: 0.95
//
compound: CS(=O)(=O)CCNCc1ccc(-c2ccc3ncnc(Nc4ccc(OCc5ccccc5)c(Cl)c4)c3c2)o1 [GW574783B]
z-scoreHeLa mean: 0.46
//
compound: COc1ccc(Nc2nccc(N3CCC(NC(=O)C(C)c4ccc(Cl)cc4)CC3)n2)cc1 (stereo not drawn) [GSK1379812A]
z-scoreHeLa mean: 0.32
//
compound: NC(=O)c1cccc(Nc2nccc(Nc3ccc(Oc4cccc(Cl)c4)c(Cl)c3)n2)c1 [GW659008A]
z-scoreHeLa mean: 0.60
//
compound: OCCCNc1nccc(-c2c(-c3ccc(F)cc3)nn3cc(C(F)(F)F)ccc23)n1 [GW569293E]
z-scoreHeLa mean: -0.14
//
compound: Nc1ncc(-c2cccnc2)c2scc(-c3ccc4c(c3)CCN4C(=O)Cc3ccccc3)c12 [GSK683281A]
z-scoreHeLa mean: -0.93
//
compound: Cc1c(Cn2ccn3c(=O)cc(N4CCOCC4)nc23)cccc1C(F)(F)F [GSK2289044B]
z-scoreHeLa mean: -0.65
//
compound: COC(=O)c1cccc(NC(=O)NC2CCN(c3ccnc(Nc4ccc(OC)cc4)n3)C2)c1 (stereo not drawn) [GSK1379746A]
z-scoreHeLa mean: -0.99
//
compound: COc1cc2nccc(Nc3cccc(Oc4ccccc4)c3)c2cc1OC [GW284543A]
z-scoreHeLa mean: 0.58
//
compound: O=C1Nc2ccc(C(=O)c3ccco3)cc2C1=Cc1cc(Cl)c(O)c(Cl)c1 [GW406108X]
z-scoreHeLa mean: 1.33
//
compound: O=C(O[C@H]1CN[C@H](C#Cc2cc3ncnc(Nc4ccc5c(cnn5Cc5ccccc5)c4)c3s2)C1)N1CCOCC1 [GSK200398A]
z-scoreHeLa mean: -0.74
//
compound: O=C(Nc1ccccc1F)NC1CCN(c2ccnc(Nc3ccc(F)cc3)n2)C1 (stereo not drawn) [GSK1379722A]
z-scoreHeLa mean: 1.08
//
compound: Cc1c2ccc(N(C)c3ccnc(Nc4cccc(S(N)(=O)=O)c4)n3)cc2nn1C [GW771127A]
z-scoreHeLa mean: -1.19
//
compound: Fc1ccc(-c2ncn(C3CCNCC3)c2-c2ccnc(Oc3ccc(F)c(F)c3)n2)cc1
z-scoreHeLa mean: -1.15
//
compound: COc1cc(Nc2nccc(N3CCC(NC(=O)Nc4cccc(C(C)=O)c4)C3)n2)cc(OC)c1OC (stereo not drawn) [GSK1379753A]
z-scoreHeLa mean: -0.0237
